protocol.details: Selectivity index, ratio of CC50 for human MT4 cells to EC50 for HIV-1 3B infected in human MT4 cells
Type: toxicity, cell-based
condition.summary: read-out: Ratio CC50/EC50
Listed here: items and their measured selectivity ratio.

In [3]: df
Out[3]:
                         compound_structure  reported_measurement
0  O=C1N(Cc2ccccc2Br)c2cccn2S(=O)(=O)N1Cc1ccccc1                     8
1  O=C1N(Cc2ccccc2)c2cccn2S(=O)(=O)N1Cc1cccc(F)c1                     6
2  C=CCN1C(=O)N(Cc2ccccc2)S(=O)(=O)n2cccc21                   > 1
3  O=C1N(Cc2ccccc2Cl)c2cscc2S(=O)(=O)N1Cc1ccccc1                 > 119

Now for the compound whose selectivity ratio we want.
**Q:** For the compound O=C1N(Cc2ccc(F)cc2)c2cccn2S(=O)(=O)N1Cc1ccccc1 , give its reported selectivity ratio.
**A:** < 1

====

protocol.details: Cytotoxicity against human MT4 cells after 5 days by MTT assay
Type: cell-based
measurement.kind: CC50 at 120 h

# annotated cases, reported CC50 at 120 h shown
>>> df
                         compound_structure  reported_measurement
0  O=C1N(Cc2ccccc2Cl)c2cscc2S(=O)(=O)N1Cc1ccccc1              > 119 µM
1           Cc1ccnc2c1NC(=O)c1cccnc1N2C1CC1               > 15 µM

Let us examine a further case.
**Q:** Using the record for O=C1N(Cc2ccc(Cl)cc2Cl)c2cccn2S(=O)(=O)N1Cc1cccc(F)c1 , state its measured CC50 at 120 h.
**A:** 249 µM

====

Known CC50 at 120 h of a selection of compounds
protocol.details: Cytotoxicity against human MT4 cells after 5 days by MTT assay
Type: cell-based
State just the number; it will be interpreted in µM.

>>> print(df.to_string())
                         compound_structure  measurement_kind  reported_measurement
0  O=C1N(Cc2ccccc2Cl)c2cccn2S(=O)(=O)N1Cc1cccc(F)c1     CC50 at 120 h                   231
1  O=C1N(Cc2cccc(Cl)c2)c2cccn2S(=O)(=O)N1Cc1ccccc1     CC50 at 120 h                   196

API: the following record is the query input.
**Q:** Given N#CCN1C(=O)N(Cc2cccc(F)c2)S(=O)(=O)n2cccc21 , respond with its CC50 at 120 h.
**A:** 172

====

# collection of pIC50 values tested on UniProtKB Q72547
Friendly reminder that pIC50 comes from taking -log10 of the concentration in mol/L.

**Q:** For N#Cc1ccccc1CN1C(=O)N(Cc2cccc(F)c2)S(=O)(=O)n2cccc21 , write its pIC50.
**A:** 4.23

**Q:** Give a short answer stating reported pIC50 for N#Cc1ccccc1CN1C(=O)N(Cc2ccccc2)S(=O)(=O)n2cccc21 .
**A:** 4.24

====

protocol.details: Cytotoxicity against human MT4 cells after 5 days by MTT assay
Assay type: cell-based
Catalogue of CC50 at 120 h values
Write down the numeric answer in µM and omit the unit.

Below are worked cases with known answers.
>>> df
                         compound_structure  measurement_kind  reported_measurement
0  N#CCN1C(=O)N(Cc2ccccc2)S(=O)(=O)n2cccc21     CC50 at 120 h                   180
1  O=C1N(Cc2ccccc2Br)c2cccn2S(=O)(=O)N1Cc1ccccc1     CC50 at 120 h                   226
2  O=C1N(Cc2ccccc2)c2cccn2S(=O)(=O)N1Cc1ccccc1     CC50 at 120 h                   196
3  O=C1N(Cc2ccc(Cl)cc2Cl)c2cccn2S(=O)(=O)N1Cc1ccccc1     CC50 at 120 h                   218
4  O=C1N(Cc2ccc(Cl)cc2Cl)c2cccn2S(=O)(=O)N1Cc1cccc(Cl)c1     CC50 at 120 h                   251
5  N#CCN1C(=O)N(Cc2ccccc2)S(=O)(=O)c2cscc21     CC50 at 120 h                   503
6  O=C1N(Cc2ccc(F)cc2)c2cccn2S(=O)(=O)N1Cc1ccccc1     CC50 at 120 h                   150
7  O=C1N(Cc2ccccc2)c2cccn2S(=O)(=O)N1Cc1cccc(F)c1     CC50 at 120 h                   288

**Q:** Supply recorded CC50 at 120 h for Cc1ccc(CN2C(=O)N(Cc3ccccc3)S(=O)(=O)n3cccc32)cc1 here.
**A:** 241

**Q:** State, in one line, measured CC50 at 120 h of O=C1N(Cc2ccccc2Cl)c2cccn2S(=O)(=O)N1Cc1ccccc1
**A:** 291

**Q:** Look up and report measured CC50 at 120 h for this entry: O=C1N(Cc2cccc(Cl)c2)c2cccn2S(=O)(=O)N1Cc1cccc(F)c1
**A:** 208

**Q:** For the compound CC(C)=CCN1C(=O)N(Cc2ccccc2)S(=O)(=O)n2cccc21 , give its measured CC50 at 120 h value.
**A:** 226

====

Catalogue of selectivity ratio readings, one per entry.
protocol.details: Selectivity index, ratio of CC50 for human MT4 cells to EC50 for HIV-1 3B infected in human MT4 cells
Format: toxicity, cell-based
condition.summary: read-out: Ratio CC50/EC50

**Q:** // Input: N#CCN1C(=O)N(Cc2ccccc2)S(=O)(=O)c2cscc21 . Output its selectivity ratio only.
**A:** 559

**Q:** Hello, please tell me recorded selectivity ratio for this one: O=C1N(Cc2ccccc2)c2cccn2S(=O)(=O)N1Cc1ccccc1
**A:** 5

**Q:** Give the reported value of selectivity ratio for this record: O=C1N(Cc2cccc(Cl)c2)c2cccn2S(=O)(=O)N1Cc1cccc(F)c1
**A:** 29

**Q:** Fill in reported selectivity ratio for this entry: O=C1N(Cc2ccccc2Br)c2cccn2S(=O)(=O)N1Cc1cccc(F)c1
**A:** > 9

**Q:** Tell me its selectivity ratio given O=C1N(Cc2ccc(Cl)cc2Cl)c2cccn2S(=O)(=O)N1Cc1cccc(F)c1 as the entry.
**A:** < 1

**Q:** Recall and state the measured selectivity ratio for CC(C)=CCN1C(=O)N(Cc2ccccc2)S(=O)(=O)n2cccc21 .
**A:** 9

**Q:** Specify reported selectivity ratio for the compound shown: N#Cc1cccc(CN2C(=O)N(Cc3ccccc3)S(=O)(=O)n3cccc32)c1
**A:** > 49

**Q:** Report measured selectivity ratio; entry is O=C1N(Cc2ccc(Cl)cc2Cl)c2cccn2S(=O)(=O)N1Cc1cccc(Cl)c1
**A:** < 1

**Q:** For the compound N#Cc1ccccc1CN1C(=O)N(Cc2cccc(F)c2)S(=O)(=O)n2cccc21 , give its measured selectivity ratio value.
**A:** > 55

**Q:** Name the recorded selectivity ratio of the item O=C1N(Cc2ccccc2Cl)c2cccn2S(=O)(=O)N1Cc1cccc(Br)c1 in your answer.
**A:** > 14

**Q:** Quote selectivity ratio reported for Nc1ccn([C@@H]2CS[C@H](CO)O2)c(=O)n1 please.
**A:** > 47

**Q:** Provide measured selectivity ratio value, entry: O=C1N(Cc2ccccc2Cl)c2cccn2S(=O)(=O)N1Cc1cccc(F)c1
**A:** 21

====

protocol.details: Cytotoxicity against human MT4 cells after 5 days by MTT assay
Assay type: cell-based
Reported CC50 at 120 h is given for each of the following molecules.

In [3]: df
Out[3]:
                         compound_structure  measurement_kind  reported_measurement
0  N#Cc1ccccc1CN1C(=O)N(Cc2cccc(Cl)c2)S(=O)(=O)n2cccc21     CC50 at 120 h              > 293 µM

**Q:** Given the molecule Nc1ccn([C@@H]2CS[C@H](CO)O2)c(=O)n1 , write its reported CC50 at 120 h.
**A:** > 87 µM

**Q:** Tell me measured CC50 at 120 h for N#Cc1cccc(CN2C(=O)N(Cc3ccccc3)S(=O)(=O)n3cccc32)c1 please.
**A:** > 318 µM

**Q:** Look up CC50 at 120 h of O=C1N(Cc2ccc(Cl)cc2Cl)c2cccn2S(=O)(=O)N1Cc1cccc(Br)c1 and report it.
**A:** > 243 µM

**Q:** Please supply the value of reported CC50 at 120 h for the item Nc1ccn([C@H]2CC[C@@H](CO)O2)c(=O)n1
**A:** > 95 µM

**Q:** Please give the documented CC50 at 120 h of N#Cc1ccccc1CN1C(=O)N(Cc2ccccc2)S(=O)(=O)n2cccc21
**A:** > 318 µM

**Q:** Identify measured CC50 at 120 h associated with O=C1N(Cc2ccccc2Cl)c2cccn2S(=O)(=O)N1Cc1cccc(Br)c1
**A:** > 260 µM

**Q:** Using the record for O=C1N(C/C=C/c2ccccc2)c2cccn2S(=O)(=O)N1Cc1ccccc1 , state its measured CC50 at 120 h.
**A:** > 318 µM

**Q:** Provide only the value of recorded CC50 at 120 h for N#Cc1ccccc1CN1C(=O)N(Cc2cccc(F)c2)S(=O)(=O)n2cccc21
**A:** > 305 µM
